# MEASURED TARGET: GR complex
# ASSAY PROTOCOL: modulation of [35S]TBPS binding in rat cerebral cortex P2 homogenate
# Design: species or system Sprague-Dawley rats
# CONDITION SET: concentration of compounds to inhibit 50% of control [35S]TBPS binding; 2 nM [35S]TBPS, 25°C, 90 minutes; unit inferred
pIC50: −log10 of the molar value.
So basically: is pIC50 under 7? Then T. Not under? Then F.

Study these solved cases before continuing.
>>> qualitative_label("CC(=O)[C@H]1CC[C@H]2[C@@H]3CC[C@@H]4C[C@](C)(O)CC[C@@H]4[C@H]3CC[C@]12C")
"F"
>>> qualitative_label("C#C[C@@]1(O)CC[C@@]2(C)[C@@H](CC[C@@H]3[C@@H]2CC[C@]2(C)[C@@H](C(C)=O)CC[C@@H]32)C1 [3α-hydroxy-3β-ethynyl-5α-pregnan-20-one, 3β-Ethynyl-3α-hydroxy-5α-pregnan-20-one]")
"F"
>>> qualitative_label("CC(=O)[C@H]1CC[C@H]2[C@@H]3CC[C@@H]4C[C@](C)(O)CC[C@]4(C)[C@H]3CC[C@]12C [3α-hydroxy-3β-methyl-5β-pregnan-20-one]")
"F"
>>> qualitative_label("C#C[C@@]1(O)CC[C@@]2(C)[C@@H](CC[C@@H]3[C@@H]2CC[C@]2(C)[C@@H]([C@@H](C)O)CC[C@@H]32)C1 [3α,20β-dihydroxy-3β-ethynyl-5α-pregnane, 3β-ethynyl-3α,20β-dihydroxy- 5α-pregnane]")
"T"
>>> qualitative_label("COC(=O)CCC(=O)OCC(=O)C1CCC2C3CCC4CC(O)(C(F)(F)F)CCC4(C)C3CCC12C (stereo not shown)")
"T"

Turning now to a further record.
Check if pIC50 falls below 7 for `CC(=O)OCC(=O)[C@H]1CC[C@H]2[C@@H]3CC[C@H]4C[C@](C)(O)CC[C@]4(C)[C@H]3CC[C@]12C` .
T
